subjectOfTest: ~100 representative kinases (Homo sapiens)
Construct: Recombinant protein kinase domains with a concentration of 2 μM
Sequence (P51813 1-675): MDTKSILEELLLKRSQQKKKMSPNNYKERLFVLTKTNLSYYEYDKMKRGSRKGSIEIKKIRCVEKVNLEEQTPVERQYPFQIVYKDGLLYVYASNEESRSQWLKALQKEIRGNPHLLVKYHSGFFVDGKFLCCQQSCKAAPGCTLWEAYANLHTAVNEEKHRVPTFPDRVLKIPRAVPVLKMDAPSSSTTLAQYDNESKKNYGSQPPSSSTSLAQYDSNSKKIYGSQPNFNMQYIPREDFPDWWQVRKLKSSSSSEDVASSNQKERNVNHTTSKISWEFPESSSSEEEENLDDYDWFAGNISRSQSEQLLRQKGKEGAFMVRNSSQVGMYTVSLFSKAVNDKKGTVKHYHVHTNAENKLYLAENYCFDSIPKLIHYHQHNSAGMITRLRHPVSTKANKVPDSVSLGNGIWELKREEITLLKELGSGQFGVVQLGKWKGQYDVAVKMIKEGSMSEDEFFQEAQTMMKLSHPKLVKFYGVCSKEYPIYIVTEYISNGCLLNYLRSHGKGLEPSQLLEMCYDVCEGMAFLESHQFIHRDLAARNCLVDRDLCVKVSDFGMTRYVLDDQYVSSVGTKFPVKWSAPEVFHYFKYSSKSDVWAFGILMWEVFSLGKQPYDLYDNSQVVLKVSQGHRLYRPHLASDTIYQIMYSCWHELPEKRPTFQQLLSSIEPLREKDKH
assayNotes: DSF 100 kinase selectivity screen;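 note: compound tested at 20 µM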
Assay type: binding
conditionSet: Protein BMX; average of three replicates
reportedMetric: dTm (K)
Express the result in K but write the number alone.

Sample records with dTm:
molecule	units	dTm
Cn1cc(-c2c[nH]c3ncnc(N4CCOCC4)c23)cc1C#N [PFE-360]	K	0.47
CCSc1nc(NC)c2c(-c3cccc(NC(=O)Nc4cc(C(C)(C)C)nn4-c4ccc(C)cc4)c3)c[nH]c2n1 [Compound 32]	K	-0.26

What does the data say about its dTm? Entry: O=C(Nc1cccc(-c2c[nH]c3ncnc(N4CCOCC4)c23)c1)C1(C(=O)Nc2ccc(F)c(Br)c2F)CC1 [Compound 26]
-0.35

====

subjectOfTest: ~100 representative kinases (Homo sapiens)
Construct: Recombinant protein kinase domains with a concentration of 2 μM
assayNotes: DSF 100 kinase selectivity screen;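 note: compound tested at 20 µM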
Type: binding
conditionSet: Protein DAPK3; average of three replicates
Quick rule for you: dTm under 5 K gets True, anything else gets False.

Field: example entries. Status: answers known.
compound	assignedLabel
Cc1ccc(NC(=O)C2(C(=O)Nc3cccc(-c4c[nH]c5ncnc(N6CCOCC6)c45)c3)CC2)cc1 [Compound 14]	True
O=C(Nc1cccc(-c2c[nH]c3ncnc(N4CCOCC4)c23)c1)C1(C(=O)Nc2ccc(F)c(Br)c2)CC1 [Compound 19]	False
O=C(Nc1cccc(-c2c[nH]c3ncnc(N4CCOCC4)c23)c1)C1(C(=O)Nc2ccc(F)c(Br)c2F)CC1 [Compound 26]	True
Cc1cc(NC(=O)C2(C(=O)Nc3cccc(-c4c[nH]c5ncnc(N6CCOCC6)c45)c3)CC2)ccc1F [Compound 20]	False

Please state whether dTm is below 5 K for CCNc1nc(Nc2cc(F)c(C(=O)N3CCOCC3)cc2OC)ncc1C(F)(F)F [GNE-7915]
True

====

Examples of compounds with documented dTm follow.
subjectOfTest: ~100 representative kinases (Homo sapiens, UniProt O94768)
Construct: Recombinant protein kinase domains with a concentration of 2 μM
Sequence (O94768 whole entry, the tested form may be a part): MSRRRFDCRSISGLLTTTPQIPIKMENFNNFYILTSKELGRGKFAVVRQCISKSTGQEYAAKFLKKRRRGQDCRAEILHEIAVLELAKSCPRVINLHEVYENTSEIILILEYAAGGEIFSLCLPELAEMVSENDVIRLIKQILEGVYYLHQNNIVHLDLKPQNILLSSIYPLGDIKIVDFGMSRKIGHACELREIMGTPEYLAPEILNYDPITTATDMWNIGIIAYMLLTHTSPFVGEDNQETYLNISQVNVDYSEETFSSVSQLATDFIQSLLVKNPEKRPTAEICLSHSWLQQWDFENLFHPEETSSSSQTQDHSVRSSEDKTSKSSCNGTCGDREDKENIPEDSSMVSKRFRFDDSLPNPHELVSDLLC
assayNotes: DSF 100 kinase selectivity screen;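 note: compound tested at 20 µM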
Assay type: binding
conditionSet: Protein STK17B; DSF; average of three replicates
State just the number; it will be interpreted in K.

Worked cases, dTm given:
compound	reportedMetric	units	quantitativeResult
Cc1cc(F)ccc1NC(=O)C1(C(=O)Nc2cccc(-c3c[nH]c4ncnc(N5CCOCC5)c34)c2)CC1	dTm	K	2.37
Cn1cc(-c2c[nH]c3ncnc(N4CCOCC4)c23)cc1C#N	dTm	K	-2.21

Proceed to the following item.
Quick check: dTm of Cc1ccc(C(=O)Nc2ccc(CN3CCN(C)CC3)c(C(F)(F)F)c2)cc1C#Cc1cnc2[nH]ncc2c1 [GZD-824, reference compound] ?
-1.15

====

subjectOfTest: LRRK2^RCKW (Homo sapiens, UniProt Q5S007)
Construct: LRRK2 R1327 to E2527; His6-Z-tag (TEV cleavable) (N, cleaved yes); host or cells: Sf9 insect cells (baculovirus)
Sequence (Q5S007 1327-2527): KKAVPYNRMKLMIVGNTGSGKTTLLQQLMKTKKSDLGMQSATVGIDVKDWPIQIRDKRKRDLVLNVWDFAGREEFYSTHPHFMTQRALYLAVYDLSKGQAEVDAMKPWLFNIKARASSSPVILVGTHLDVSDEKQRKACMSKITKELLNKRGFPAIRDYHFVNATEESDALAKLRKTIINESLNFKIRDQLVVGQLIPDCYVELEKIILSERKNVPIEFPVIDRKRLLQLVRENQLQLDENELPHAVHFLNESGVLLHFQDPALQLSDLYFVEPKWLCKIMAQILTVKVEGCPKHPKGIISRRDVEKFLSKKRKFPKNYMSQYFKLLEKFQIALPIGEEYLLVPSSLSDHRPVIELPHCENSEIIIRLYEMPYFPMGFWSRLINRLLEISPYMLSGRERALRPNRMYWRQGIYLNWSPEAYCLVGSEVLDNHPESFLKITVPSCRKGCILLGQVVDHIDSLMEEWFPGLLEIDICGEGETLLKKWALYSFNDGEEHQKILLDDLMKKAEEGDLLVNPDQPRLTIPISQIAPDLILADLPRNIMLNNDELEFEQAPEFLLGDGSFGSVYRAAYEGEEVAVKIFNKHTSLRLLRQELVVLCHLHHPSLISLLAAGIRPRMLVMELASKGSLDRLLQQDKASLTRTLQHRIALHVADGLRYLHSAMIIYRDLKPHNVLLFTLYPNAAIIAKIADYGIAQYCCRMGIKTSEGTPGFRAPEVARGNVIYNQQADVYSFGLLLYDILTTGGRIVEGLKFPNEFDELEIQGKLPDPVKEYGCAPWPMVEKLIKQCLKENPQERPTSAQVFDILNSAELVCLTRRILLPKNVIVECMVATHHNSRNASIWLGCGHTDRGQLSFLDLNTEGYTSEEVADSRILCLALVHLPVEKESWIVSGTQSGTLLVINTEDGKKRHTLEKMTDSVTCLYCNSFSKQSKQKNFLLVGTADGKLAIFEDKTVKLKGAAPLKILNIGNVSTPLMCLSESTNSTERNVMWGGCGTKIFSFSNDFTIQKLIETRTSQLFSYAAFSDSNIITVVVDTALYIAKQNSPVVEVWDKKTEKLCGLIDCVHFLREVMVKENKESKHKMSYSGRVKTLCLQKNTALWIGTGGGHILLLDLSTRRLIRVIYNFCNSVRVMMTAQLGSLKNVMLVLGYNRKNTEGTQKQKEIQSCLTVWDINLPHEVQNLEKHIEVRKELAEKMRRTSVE
assayNotes: Biochemical LRRK2 activity assay (PhosphoSense, AssayQuant SOX peptide AQT0615)
conditionSet: LRRK2^RCKW kinase activity, in vitro
reportedMetric: IC50
Number plus unit, in that order.

Below: 2 molecules and their reported IC50.
molecule	IC50
O=C(Nc1cccc(-c2c[nH]c3ncnc(N4CCOCC4)c23)c1)C1(C(=O)Nc2ccc(F)c(Br)c2F)CC1 [Compound 26]	0.134 µM
O=C(Nc1ccc(F)cc1)C1(C(=O)Nc2cccc(-c3c[nH]c4ncnc(N5CCOCC5)c34)c2)CC1 [Compound 2]	0.185 µM

For the next question, use this molecule.
Which IC50 is listed for CCSc1nc(NC)c2c(-c3cccc(NC(=O)Nc4cc(C(C)(C)C)nn4-c4ccc(C)cc4)c3)c[nH]c2n1 [Compound 32] ?
0.296 µM

====

dTm reference
subjectOfTest: ~100 representative kinases (Homo sapiens)
Construct: Recombinant protein kinase domains with a concentration of 2 μM
assayNotes: DSF 100 kinase selectivity screen;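 note: compound tested at 20 µM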
Assay type: binding
conditionSet: protein PIM1; average of three replicates
Procedure: Recombinant protein kinase domains with a concentration of 2 μM were mixed with a 20 μM compound solution in dimethyl sulfoxide (DMSO), 20 mM Hepes (pH 7.5), and 500 mM NaCl. SYPRO Orange (5000×, Invitrogen) was added as a fluorescence probe (1μl/ml). Subsequently, temperature-dependent protein unfolding profiles were measured using the QuantStudio 5 realtime PCR machine (Thermo Fisher Scientific, Waltham, MA, USA). […] The temperature was raised with a step rate of 3°C/min. […]
Just the number in K, nothing appended.

Consider the following illustrative entries.
compound	subjectOfTest	units	dTm
COc1cc(C(=O)N2CCOCC2)c(F)cc1Nc1nc(N(C)C)c2c(Cl)c[nH]c2n1	~100 representative kinases (Homo sapiens)	K	-0.51
COc1cc2c(Oc3ccc(NC(=O)C4(C(=O)Nc5ccc(F)cc5)CC4)cc3F)ccnc2cc1OCCCN1CCOCC1 [Foretinib, reference compound]	~100 representative kinases (Homo sapiens)	K	1.41
COc1ccc(NC(=O)C2(C(=O)Nc3cccc(-c4c[nH]c5ncnc(N6CCOCC6)c45)c3)CC2)cc1	~100 representative kinases (Homo sapiens)	K	-0.51
Cc1ccc(C(=O)Nc2ccc(CN3CCN(C)CC3)c(C(F)(F)F)c2)cc1C#Cc1cnc2[nH]ncc2c1 [GZD-824, reference compound]	~100 representative kinases (Homo sapiens)	K	-0.44

Report dTm for Cc1ccc(C(=O)Nc2ccc(CN3CCN(C)CC3)c(C(F)(F)F)c2)cc1C#Cc1c[nH]c2ncnc(N3CCOCC3)c12 please.
1.54

Looking for the measured dTm of O=C(Nc1cccc(-c2c[nH]c3ncnc(N4CCOCC4)c23)c1)C1(C(=O)Nc2cccc3c2CCC3)CC1 , can you help?
1.06

What does the data say about its dTm? Entry: O=C(Nc1cccc(-c2c[nH]c3ncnc(N4CCOCC4)c23)c1)C1(C(=O)Nc2ccc(F)c(Cl)c2)CC1
5.41

Look at this compound and give its reported dTm. Cc1ccc(NC(=O)C2(C(=O)Nc3cccc(-c4c[nH]c5ncnc(N6CCOCC6)c45)c3)CC2)cc1
1.13

Return reported dTm; argument: Cc1ccc(-n2nc(C(C)(C)C)cc2NC(=O)Nc2cccc(-c3c[nH]c4ncnc(N5CCOCC5)c34)c2)cc1
3.53

GET /values?readout=dTm&item= Cc1cc(F)ccc1NC(=O)C1(C(=O)Nc2cccc(-c3c[nH]c4ncnc(N5CCOCC5)c34)c2)CC1
0.58

Which dTm reading was recorded for the compound CC(=O)N1CCN(c2nc(Cl)nc3[nH]cc(-c4cccc(NC(=O)Nc5cc(C(C)(C)C)nn5-c5ccc(C)cc5)c4)c23)CC1 ?
3.25

# dTm lookup, item O=C(Nc1cccc(-c2c[nH]c3ncnc(N4CCOCC4)c23)c1)c1cccn(-c2ccc(F)cc2)c1=O
0.92

What value of dTm has been reported for the following compound? O=C(Nc1cccc(-c2c[nH]c3ncnc(N4CCOCC4)c23)c1)C1(C(=O)Nc2ccc(F)cc2F)CC1
0.61

Look up dTm for this compound: CC(C)(C)c1cc(NC(=O)Nc2cccc(-c3c[nH]c4ncnc(N5CCOCC5)c34)c2)n(-c2ccc3ncccc3c2)n1
7.97

Query (compound): Cn1cc(-c2c[nH]c3ncnc(N4CCOCC4)c23)cc1C#N ; field requested: dTm
1.04

// dTm lookup, key: CNC(=O)c1cc(Oc2ccc(NC(=O)Nc3cc(C(C)(C)C)nn3-c3ccc4ncccc4c3)c(F)c2)ccn1 [Rebastinib, reference compound]
0.65
